- system: recombinant 15-PGDH (Homo sapiens, UniProt P15428)
- Sequence (P15428 whole entry): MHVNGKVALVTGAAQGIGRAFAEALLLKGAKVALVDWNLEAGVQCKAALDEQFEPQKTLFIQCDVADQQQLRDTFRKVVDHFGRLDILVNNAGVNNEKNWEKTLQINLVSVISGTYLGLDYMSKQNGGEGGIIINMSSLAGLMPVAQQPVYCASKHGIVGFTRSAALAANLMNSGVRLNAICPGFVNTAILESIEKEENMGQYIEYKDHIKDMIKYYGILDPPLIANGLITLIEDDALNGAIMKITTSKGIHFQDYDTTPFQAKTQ
- protocol.summary: inhibition of enzymatic activity of recombinant 15-PGDH in vitro
- applied.conditions: recombinant human 15-PGDH
Let's look at some molecules and their measured IC50.

Field: example entries. Status: answers known.
> print(dat)
                                   molecule  result.type   measurement
1  COCC[S+]([O-])c1sc2nc(-c3cnc4c(c3)OCCN4)cc(-c3ccnn3C)c2c1N (stereo not shown) [Compound 32]         IC50      < 2.5 nM
2  CC(C)c1cc(-c2cnc(NCCO)nc2)nc2sc([S@@+]([O-])C3CCC3)c(N)c12 [Compound 8]         IC50       > 10 nM
3  Cn1nccc1-c1cc(-c2ccc3nccnc3c2)nc2sc([S@+]([O-])C3CCC3)c(N)c12 [Compound 1]         IC50      < 2.5 nM
4  Cn1nccc1-c1cc(-c2cnc3c(c2)CNCC3)nc2sc([S+]([O-])C3CCC3)c(N)c12 (stereo not shown) [Compound 31]         IC50  2.5 to 10 nM
5  COCC[S+]([O-])c1sc2nc(-c3ccc4nccnc4c3)cc(C(C)C)c2c1N (single isomer, unassigned) [Compound 25]         IC50       > 10 nM
6  COCC[S@@+]([O-])c1sc2nc(-c3cnc4nn(C)nc4c3)cc(C(C)(C)C)c2c1N [Compound 29]         IC50      < 2.5 nM

input: Reported IC50, molecule COCC[S@@+]([O-])c1sc2nc(-c3cnc4cnccn34)cc(-c3ccnn3C)c2c1N [Compound 13] : ____
output: < 2.5 nM

input: Reported IC50, molecule Cn1cc2cc(-c3cc(C4CC5(COC5)C4)c4c(N)c([S@+]([O-])C5CCC5)sc4n3)cnc2n1 [Compound 14] : ____
output: < 2.5 nM

input: Reported IC50, molecule Cn1nccc1-c1cc(-c2cnc3ncccn23)nc2sc([S@+]([O-])C3CCC3)c(N)c12 [Compound 5] : ____
output: 2.5 to 10 nM

input: Reported IC50, molecule CC(C)(C)c1cc(-c2cnc(N)nc2)nc2sc([S@+]([O-])C3CCC3)c(N)c12 [Compound 35] : ____
output: < 2.5 nM

====

- system: CYP 2C9 (Homo sapiens)
- Construct: pooled human liver microsomes (Corning, Xenotech, or other qualified vendors; pooled from multiple donors); tissue Corning, Xenotech, or other qualified vendors; host or cells: pooled human liver microsomes
- Sequence (P11712 whole entry): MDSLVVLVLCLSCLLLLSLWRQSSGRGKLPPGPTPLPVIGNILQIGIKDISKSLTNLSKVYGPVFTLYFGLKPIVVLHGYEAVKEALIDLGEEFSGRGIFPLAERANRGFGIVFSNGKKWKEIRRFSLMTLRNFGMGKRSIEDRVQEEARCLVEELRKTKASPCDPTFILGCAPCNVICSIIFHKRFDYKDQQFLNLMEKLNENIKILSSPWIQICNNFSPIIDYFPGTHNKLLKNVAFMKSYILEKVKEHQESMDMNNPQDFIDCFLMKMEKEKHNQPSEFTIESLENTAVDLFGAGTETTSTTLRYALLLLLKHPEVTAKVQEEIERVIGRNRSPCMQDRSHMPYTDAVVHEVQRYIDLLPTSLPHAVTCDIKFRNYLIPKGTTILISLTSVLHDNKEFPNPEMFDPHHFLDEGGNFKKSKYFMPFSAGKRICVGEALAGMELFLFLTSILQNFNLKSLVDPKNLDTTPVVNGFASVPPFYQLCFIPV
- protocol.summary: microsomal CYP inhibition, 2C9
- Format: in vitro ADME
- applied.conditions: human liver microsomes 0.2 mg/ml, substrate Diclofenac
result.type: IC50 (µM)
Quick note: give the figure in µM, leave out the unit.

input: Reported IC50, compound COCC[S@@+]([O-])c1sc2nc(-c3cnc4nn(C)nc4c3)cc(C(C)(C)C)c2c1N [Compound 29] : ____
output: 4

====

- system: CYP 3A4 (Homo sapiens)
- Construct: pooled human liver microsomes (Corning, Xenotech, or other qualified vendors; pooled from multiple donors); tissue Corning, Xenotech, or other qualified vendors; host or cells: pooled human liver microsomes
- Sequence (P08684 whole entry): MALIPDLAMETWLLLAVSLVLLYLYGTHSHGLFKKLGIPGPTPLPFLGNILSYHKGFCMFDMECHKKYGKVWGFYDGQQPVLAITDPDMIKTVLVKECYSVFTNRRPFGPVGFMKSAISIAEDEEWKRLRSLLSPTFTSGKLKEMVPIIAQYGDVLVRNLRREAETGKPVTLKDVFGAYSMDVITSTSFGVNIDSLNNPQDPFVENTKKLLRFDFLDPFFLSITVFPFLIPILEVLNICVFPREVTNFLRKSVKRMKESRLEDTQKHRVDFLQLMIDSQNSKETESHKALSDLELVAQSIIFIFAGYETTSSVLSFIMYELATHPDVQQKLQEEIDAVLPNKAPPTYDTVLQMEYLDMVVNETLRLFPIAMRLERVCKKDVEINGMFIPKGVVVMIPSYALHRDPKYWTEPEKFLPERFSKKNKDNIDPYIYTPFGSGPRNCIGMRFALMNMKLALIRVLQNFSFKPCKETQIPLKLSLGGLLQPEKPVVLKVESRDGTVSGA
- protocol.summary: microsomal CYP inhibition, 3A4
- Format: in vitro ADME
- applied.conditions: human liver microsomes 0.2 mg/ml, substrate Midazolam; read-out: CYP inhibition (μM) 3A4 (3A4M)
result.type: IC50 (µM)
Quick note: give the figure in µM, leave out the unit.

input: Reported IC50, compound COCC[S@@+]([O-])c1sc2nc(-c3cnc4nn(C)nc4c3)cc(C(C)(C)C)c2c1N : ____
output: 39
